Provenance of the data: ChEMBL document CHEMBL1137816

Molecular target: Tissue alpha-L-fucosidase (Bos taurus) (UniProt Q2KIM0)
Sequence (whole entry): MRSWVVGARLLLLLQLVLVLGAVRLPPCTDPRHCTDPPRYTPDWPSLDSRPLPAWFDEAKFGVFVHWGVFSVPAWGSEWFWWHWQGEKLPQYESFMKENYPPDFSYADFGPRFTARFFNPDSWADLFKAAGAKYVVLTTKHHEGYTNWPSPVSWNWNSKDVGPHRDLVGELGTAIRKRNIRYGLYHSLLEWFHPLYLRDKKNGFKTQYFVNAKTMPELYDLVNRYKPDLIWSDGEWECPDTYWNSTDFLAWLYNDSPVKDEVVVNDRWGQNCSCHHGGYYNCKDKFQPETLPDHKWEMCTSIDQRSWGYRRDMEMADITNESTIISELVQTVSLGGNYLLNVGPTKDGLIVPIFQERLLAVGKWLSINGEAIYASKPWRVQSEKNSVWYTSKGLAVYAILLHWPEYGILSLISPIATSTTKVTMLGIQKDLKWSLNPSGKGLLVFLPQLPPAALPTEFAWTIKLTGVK
Assay: Inhibition of bovine epididymis alpha-L-fucosidase assessed as p-nitrophenol release at 1000 uM after 30 mins by spectrophotometry
Calls of active or inactive are those of the source. The rule behind the calls is not given here.
endpoint-name: Activity

Consider the worked cases shown below.
C[C@@H]1C[C@H](O)[C@@H]2[C@@H](O)[C@H](O)[C@@H](CO)N21 (relative stereo) [HYACINTHACINE B4]    inactive
C[C@H]1CC[C@@H]2[C@H](O)[C@H](O)[C@H](CO)N21 (relative stereo)    inactive
C[C@@H]1C[C@@H](O)[C@@H]2[C@H](O)[C@H](O)[C@@H](CO)N21 [HYACINTHACINE B3]    inactive
C[C@@H]1C[C@H](O)[C@@H]2[C@H](O)[C@@H](O)[C@@H](CO)N21 (relative stereo)    inactive
C[C@@H]1CC[C@@H]2[C@H](O)[C@H](O)[C@@H](CO)N12 (relative stereo)    inactive
C[C@H]1CC[C@@H]2[C@H](O)[C@H](O)[C@@H](CO)N21 (relative stereo)    inactive
C[C@@H]1CC[C@@H]2[C@@H](O)[C@@H](O)[C@@H](CO)N12 (relative stereo) [HYACINTHACINE A5]    inactive

The compound listed as C[C@@H]1C[C@H](O)[C@@H]2[C@H](O)[C@H](O)[C@@H](CO)N21 (relative stereo) [HYACINTHACINE B5] shows Activity equal to inactive

###

IC50, Beta-mannosidase (Rattus norvegicus, UniProt Q4FZV0): measured values
Expressed in µM, but write only the number.

OCC[C@H]1N[C@H](CO)[C@@H](O)[C@@H]1O    320

Next item in the queue.
The compound listed as OCC(O)[C@H]1N[C@H](CO)[C@@H](O)[C@@H]1O (single isomer, unassigned) shows IC50 equal to 53

###

assay: Inhibition of rice alpha-glucosidase assessed as D-glucose release after 10 mins by Glucose B-test; design: species or system Oryza sativa
Overview of reported IC50 across a group of compounds:
Expressed in µM, but write only the number.

Consider the worked cases shown below.
OC[C@H]1NC[C@H](O)[C@@H](O)[C@@H]1O [DUVOGLUSTAT]    0.05
C[C@H]1N[C@H](CO)[C@@H](O)[C@H](O)[C@H]1O    8

The compound listed as OCC(O)[C@H]1N[C@H](CO)[C@@H](O)[C@@H]1O (single isomer, unassigned) shows IC50 equal to 95

The compound listed as CC(O)[C@H]1N[C@H](CO)[C@@H](O)[C@@H]1O (single isomer, unassigned) shows IC50 equal to 9.2
